System: Mycobacterium tuberculosis
Assay Overview: Antimicrobial activity against Mycobacterium tuberculosis H37Rv ATCC 27294 after 16 to 24 hrs by microplate alamar blue assay
Type: functional
The source made the active and inactive calls. The calls are words filed in the database; no cut-off is given here.
Measured Attribute: MIC

CC(C)C[C@H](NC(=O)OCC1c2ccccc2-c2ccccc21)C(=O)O/N=C1\c2ccccc2-c2c1c(N1CCN(c3ccccn3)CC1)nc1ccc(Br)cc21 : inactive
CCC(=O)O/N=C1\c2ccccc2-c2c1c(-n1ccnc1)nc1ccc(Br)cc21 : 0.29 µg/mL
COc1nc2ccc(Br)cc2cc1[C@@H](c1ccccc1)[C@@](O)(CCN(C)C)c1cccc2ccccc12 : 0.06 µg/mL
CCCCCCCCC(=O)O/N=C1\c2ccccc2-c2c1c(-n1ccnc1)nc1ccc(Br)cc21 : 0.39 µg/mL
CCC(=O)OC1(C)c2ccccc2-c2c1c(-n1ccnc1)nc1ccc(Br)cc21 (stereo unspecified) : inactive

Here's the next entry for you.
Look up MIC: CCCCCCC(=O)OC1(C)c2ccccc2-c2c1c(-n1ccnc1)nc1ccc(Br)cc21 (stereo unspecified)
0.42 µg/mL

###

Assay Overview: Half life in human blood serum by LC-MS analysis
Type: ADME, cell-free, Plasma
Measured Attribute: half-life (h)
Give a bare numeral; the unit h is implied.

C[C@H](NC(=O)OC(C)(C)C)C(=O)O/N=C1\c2ccccc2-c2c1c(N1CCN(c3ccccn3)CC1)nc1ccc(Br)cc21 : 480
CCCCC(=O)O/N=C1\c2ccccc2-c2c1c(-n1ccnc1)nc1ccc(Br)cc21 : 144
CC(C)(C)OC(=O)NC(Cc1cccc(F)c1)C(=O)O/N=C1\c2ccccc2-c2c1c(N1CCN(c3ccccn3)CC1)nc1ccc(Br)cc21 (stereo not drawn) : 144
CC(C)(C)OC(=O)N1CCC[C@H]1C(=O)O/N=C1\c2ccccc2-c2c1c(-n1ccnc1)nc1ccc(Br)cc21 : 24
CCCCCCCCC(=O)O/N=C1\c2ccccc2-c2c1c(-n1ccnc1)nc1ccc(Br)cc21 : 72

Look up half-life: CC1(OC(=O)CC(F)(F)F)c2ccccc2-c2c1c(-n1ccnc1)nc1ccc(Br)cc21 (stereo not drawn)
480

Look up half-life: `CCCCCCCCCC(=O)O/N=C1\c2ccccc2-c2c1c(-n1ccnc1)nc1ccc(Br)cc21`
144

Look up half-life: `CC(C)(C)OC(=O)NCC(=O)O/N=C1\c2ccccc2-c2c1c(N1CCN(c3ccccn3)CC1)nc1ccc(Br)cc21`
24

###

Tested on: Mycobacterium tuberculosis
Assay Overview: Antimicrobial activity against Mycobacterium tuberculosis H37Rv ATCC 27294 after 16 to 24 hrs by microplate alamar blue assay
Assay type: functional
The source made the active and inactive calls. No cut-off for these calls is given here.
Measured Attribute: MIC

// solved cases for MIC follow
CC(C)(C)OC(=O)NCC(=O)OC1(C)c2ccccc2-c2c1c(-n1ccnc1)nc1ccc(Br)cc21 (stereo not drawn) : 2.03 µg/mL
CC1(O)c2ccccc2-c2c1c(-n1ccnc1)nc1ccc(Br)cc21 (stereo not drawn) : 0.78 µg/mL
CCCC(=O)OC1(C)c2ccccc2-c2c1c(-n1ccnc1)nc1ccc(Br)cc21 (stereo not drawn) : inactive
CCCCCCCCCCCCCCC(=O)OC1(C)c2ccccc2-c2c1c(-n1ccnc1)nc1ccc(Br)cc21 (stereo not drawn) : inactive
O=C(O/N=C1\c2ccccc2-c2c1c(N1CCN(c3ccccn3)CC1)nc1ccc(Br)cc21)C1CC1 : inactive

MIC of `O/N=C1\c2ccccc2-c2c1c(N1CCN(c3ccccn3)CC1)nc1ccc(Br)cc21` on Mycobacterium tuberculosis?
6.25 µg/mL

MIC of `CC(C)[C@H](NC(=O)OCC1c2ccccc2-c2ccccc21)C(=O)O/N=C1\c2ccccc2-c2c1c(N1CCN(c3ccccn3)CC1)nc1ccc(Br)cc21` on Mycobacterium tuberculosis?
1.47 µg/mL

MIC of `CCCCCCCCCC(=O)O/N=C1\c2ccccc2-c2c1c(N1CCN(c3ccccn3)CC1)nc1ccc(Br)cc21` on Mycobacterium tuberculosis?
inactive

###

Assay Overview: Cytotoxicity against human U937 cells assessed as cell viability at 20 ug/ml after 72 hrs by MTT assay
Assay type: cell-based, U-937
Test Conditions: read-out: Activity
viability at 72 h, 20 ug/ml under 50% gets 1.0, anything at or over 50% gets 0.0.

Some solved entries appear below for comparison.
CCCCC(=O)OC1(C)c2ccccc2-c2c1c(-n1ccnc1)nc1ccc(Br)cc21 (configuration not stated) : 1.0
CCCCCCCC(=O)OC1(C)c2ccccc2-c2c1c(-n1ccnc1)nc1ccc(Br)cc21 (configuration not stated) : 1.0
CC(C)(C)OC(=O)NC(Cc1cccc(F)c1)C(=O)O/N=C1\c2ccccc2-c2c1c(N1CCN(c3ccccn3)CC1)nc1ccc(Br)cc21 (configuration not stated) : 0.0
CCCCCCCCC(=O)O/N=C1\c2ccccc2-c2c1c(-n1ccnc1)nc1ccc(Br)cc21 : 0.0
CC(=O)OC1(C)c2ccccc2-c2c1c(-n1ccnc1)nc1ccc(Br)cc21 (configuration not stated) : 1.0
CC(C)[C@H](NC(=O)OCC1c2ccccc2-c2ccccc21)C(=O)O/N=C1\c2ccccc2-c2c1c(N1CCN(c3ccccn3)CC1)nc1ccc(Br)cc21 : 0.0

In the following, a different molecule is considered.
Just wondering, is viability at 72 h, 20 ug/ml of `CCCCCCC(=O)O/N=C1\c2ccccc2-c2c1c(-n1ccnc1)nc1ccc(Br)cc21` below 50%?
0.0

###

Assay Overview: Half life in human blood serum by LC-MS analysis
Assay type: ADME, cell-free, Plasma
Measured Attribute: half-life (h)
Give a bare numeral; the unit h is implied.

CC(=O)NCC(=O)O/N=C1\c2ccccc2-c2c1c(N1CCN(c3ccccn3)CC1)nc1ccc(Br)cc21 : 192
CC(=O)O/N=C1\c2ccccc2-c2c1c(-n1ccnc1)nc1ccc(Br)cc21 : 84
CCCC(=O)O/N=C1\c2ccccc2-c2c1c(-n1ccnc1)nc1ccc(Br)cc21 : 96

Look up half-life: `CCCCCCC(=O)O/N=C1\c2ccccc2-c2c1c(-n1ccnc1)nc1ccc(Br)cc21`
192

Look up half-life: `CCC(=O)O/N=C1\c2ccccc2-c2c1c(-n1ccnc1)nc1ccc(Br)cc21`
84

Look up half-life: `CCCCCC(=O)O/N=C1\c2ccccc2-c2c1c(-n1ccnc1)nc1ccc(Br)cc21`
240

Look up half-life: CC(C)(C)OC(=O)NC(Cc1ccccc1)C(=O)O/N=C1\c2ccccc2-c2c1c(N1CCN(c3ccccn3)CC1)nc1ccc(Br)cc21 (configuration not stated)
432

###

Assay Overview: Cytotoxicity against human U937 cells assessed as cell viability at 5 ug/ml after 72 hrs by MTT assay
Format: cell-based, U-937
Test Conditions: read-out: Activity
Measured Attribute: viability at 72 h, 5 ug/ml

CCC(=O)O/N=C1\c2ccccc2-c2c1c(N1CCN(c3ccccn3)CC1)nc1ccc(Br)cc21 : 88%
CC(C)(C)OC(=O)N[C@H](C(=O)O/N=C1\c2ccccc2-c2c1c(N1CCN(c3ccccn3)CC1)nc1ccc(Br)cc21)C(C)(C)C : 86%

Look up viability at 72 h, 5 ug/ml: CCCCCCC(=O)OC1(C)c2ccccc2-c2c1c(-n1ccnc1)nc1ccc(Br)cc21 (centres undefined)
83%

Look up viability at 72 h, 5 ug/ml: `O=C(CCCCBr)O/N=C1\c2ccccc2-c2c1c(N1CCN(c3ccccn3)CC1)nc1ccc(Br)cc21`
94%

###

Test system: Serum
Assay Overview: Stability of the compound in 80% human blood serum assessed as hydrolysis to 2-bromo-6-(1H-imidazol-1-yl)-7H-indeno[2,1-c]quinolin-7-one oxime at 1 mg after 24 hrs at 37 degC by LC-MS analysis
Format: ADME, cell-free
Parameters: scale not given: the % may be the effect or the level left
So basically: Activity at 90% or higher? That is MET. Lower than 90%? That is NOT MET.

Some solved entries appear below for comparison.
CC(C)(C)OC(=O)NC(Cc1ccccc1)C(=O)O/N=C1\c2ccccc2-c2c1c(N1CCN(c3ccccn3)CC1)nc1ccc(Br)cc21 (centres undefined) : NOT MET
CC(C)(C)OC(=O)N[C@H](C(=O)O/N=C1\c2ccccc2-c2c1c(N1CCN(c3ccccn3)CC1)nc1ccc(Br)cc21)C(C)(C)C : NOT MET
CCCCCC(=O)O/N=C1\c2ccccc2-c2c1c(N1CCN(c3ccccn3)CC1)nc1ccc(Br)cc21 : NOT MET
CCCCCC(=O)O/N=C1\c2ccccc2-c2c1c(-n1ccnc1)nc1ccc(Br)cc21 : NOT MET
CC(C)(C)OC(=O)N1CCC[C@H]1C(=O)O/N=C1\c2ccccc2-c2c1c(-n1ccnc1)nc1ccc(Br)cc21 : MET
O=C(CNC(=O)OCC1c2ccccc2-c2ccccc21)O/N=C1\c2ccccc2-c2c1c(N1CCN(c3ccccn3)CC1)nc1ccc(Br)cc21 : NOT MET
CC(=O)NCC(=O)O/N=C1\c2ccccc2-c2c1c(N1CCN(c3ccccn3)CC1)nc1ccc(Br)cc21 : MET
CC(C)(C)OC(=O)N1CCC[C@H]1C(=O)O/N=C1\c2ccccc2-c2c1c(N1CCN(c3ccccn3)CC1)nc1ccc(Br)cc21 : NOT MET

Is Activity for `CCCCCCCCC(=O)O/N=C1\c2ccccc2-c2c1c(-n1ccnc1)nc1ccc(Br)cc21` at or above 90%?
MET

Is Activity for `O=C(CCCCBr)O/N=C1\c2ccccc2-c2c1c(N1CCN(c3ccccn3)CC1)nc1ccc(Br)cc21` at or above 90%?
NOT MET

Is Activity for `CC(=O)O/N=C1\c2ccccc2-c2c1c(-n1ccnc1)nc1ccc(Br)cc21` at or above 90%?
MET

Is Activity for `CCC(=O)O/N=C1\c2ccccc2-c2c1c(N1CCN(c3ccccn3)CC1)nc1ccc(Br)cc21` at or above 90%?
NOT MET
